Assignment: determine reported SPOT peptide array binding signal intensity for the given binders.
target: AgHof1; assay: SPOT peptide array binding signal intensity (averaged, normalized) (arbitrary units (background-subtracted, floor 0; scale differs between SH3 domains)); higher = stronger binding of the SH3 domain to the peptide
Answers are plain numbers.

| binder | resultNumber |
| --- | --- |
| FLIKFTPKFPQSIDH | 45 |
| DKSRPPRPPPKPLHL | 14.2 |
| RRSKSLPITPKSIFN | 125 |
| QLLNPNRRAPRRPLS | 89.8 |
| KTKQQKPAIPQKKSF | 35.5 |

Items follow; give SPOT peptide array binding signal intensity for each.
1. ALFRLSFFFPLDPAY
2. GLRRARYKFPGQQKI

Ans.
1. 184
2. 24.5
